Provenance of the data: patent US9890152B2

Quick reference for Ki among some compounds
Biological target: EGFR del746-750 T790M (Homo sapiens, UniProt P00533, DEL746-750/T790M)
Sequence (P00533 with tags, fused parts or gaps DEL746-750/T790M limits assumed): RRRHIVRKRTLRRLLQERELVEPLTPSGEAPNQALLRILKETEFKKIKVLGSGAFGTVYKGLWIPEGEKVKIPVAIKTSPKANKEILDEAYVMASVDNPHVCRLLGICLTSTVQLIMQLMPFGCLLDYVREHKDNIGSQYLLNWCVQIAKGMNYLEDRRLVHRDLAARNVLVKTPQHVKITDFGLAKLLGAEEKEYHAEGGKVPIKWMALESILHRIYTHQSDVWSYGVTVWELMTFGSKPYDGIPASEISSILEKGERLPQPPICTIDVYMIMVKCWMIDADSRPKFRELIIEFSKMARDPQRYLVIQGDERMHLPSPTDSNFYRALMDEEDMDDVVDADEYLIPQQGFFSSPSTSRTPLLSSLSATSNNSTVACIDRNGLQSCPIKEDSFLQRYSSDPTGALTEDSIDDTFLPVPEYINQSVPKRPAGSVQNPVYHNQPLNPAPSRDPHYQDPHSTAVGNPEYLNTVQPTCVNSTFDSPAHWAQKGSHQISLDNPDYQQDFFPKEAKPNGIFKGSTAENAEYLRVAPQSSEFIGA
Assay: EGFR del746-750 T790M biochemical assay (Caliper mobility shift)
Conditions: 5 μM ATP, 30 min, room temperature; apparent Ki (Morrison) converted by Cheng-Prusoff, Km of ATP 2.1 μM; read-out: EGFR(T790M/d746-750) Ki
Reply with just the number (in nM).

[[record]]
compound_smiles = "CC1(C)COc2nc3cnc(Nc4ccnc(-c5cnn(S(=O)(=O)C6CC6)c5)n4)cc3n21"
system_tested = "EGFR del746-750 T790M (Homo sapiens, UniProt P00533, DEL746-750/T790M)"
units_symbol = "nM"
assay_result = 8.86

[[record]]
compound_smiles = "Cc1nc2cnc(Nc3ccnc(N4CC[C@H](O)C[C@@H]4C)n3)cc2n1C(C)C"
system_tested = "EGFR del746-750 T790M (Homo sapiens, UniProt P00533, DEL746-750/T790M)"
units_symbol = "nM"
assay_result = 75.8

[[record]]
compound_smiles = "C[C@H](n1c([C@@H](C)O)nc2cnc(Nc3ccnc(N4CCC(C)(O)CC4)n3)cc21)C(F)(F)F"
system_tested = "EGFR del746-750 T790M (Homo sapiens, UniProt P00533, DEL746-750/T790M)"
units_symbol = "nM"
assay_result = 13.2


Now examine the next entry.
Look up Ki for this compound: COCCC(C)(C)n1c(CO)nc2cnc(Nc3ccnc(-c4cnn(S(=O)(=O)C5CC5)c4)n3)cc21 68.8

###

Quick reference for Ki among some molecules
Target: EGFR del746-750 T790M (Homo sapiens, UniProt P00533, DEL746-750/T790M)
Experiment: EGFR del746-750 T790M biochemical assay (Caliper mobility shift)
Details: 5 μM ATP, 30 min, room temperature; apparent Ki (Morrison) converted by Cheng-Prusoff, Km of ATP 2.1 μM; read-out: EGFR(T790M/d746-750) Ki
Where a name gives a salt, the structure may show the parent alone.

[[record]]
molecule = "CC(CC(F)(F)F)n1c(CO)nc2cnc(Nc3ccnc(-c4cnn(S(=O)(=O)C5CC5)c4)n3)cc21 (centres unmarked)"
quantity_name = "Ki"
assay_result = "7.67 nM"

[[record]]
molecule = "COC1CCN(c2nccc(Nc3cc4c(cn3)nc(COCCN(C)C)n4C(C)C)n2)CC1"
quantity_name = "Ki"
assay_result = "106 nM"


Look up Ki for this molecule: COC1CCN(c2nccc(Nc3cc4c(cn3)c(-c3nnc(C)o3)cn4C(C)C)n2)CC1 28.7 nM

Look up Ki for this molecule: CC(C)n1cc(C(=O)NC2CCOCC2)c2cnc(Nc3ccnc(NCC(C)(C)S(C)(=O)=O)n3)cc21 5.68 nM

Look up Ki for this molecule: CC(C)n1cnc2cnc(Nc3ccnc(N4CCC5(CCCO5)CC4)n3)cc21 [Example 141, formate salt] 55.5 nM
